Experiment: Ratio of the Pgp to that of MRP1 was determined
Type: functional
Rule: Met for Ratio not less than 1, Not met for anything less.

>  <Molecular string>
Nc1c2c(nc3ccccc13)N(Cc1ccccc1)CC2

>  <Category>
Met

$$$$
>  <Molecular string>
CN1CCc2c1nc1ccccc1c2NC(=O)CN1CCCCC1

>  <Category>
Met

$$$$
>  <Molecular string>
Nc1c2c(nc3cc(Br)ccc13)N(Cc1ccccc1)CC2

>  <Category>
Met

$$$$
>  <Molecular string>
CN1CCc2c1nc1cc(Br)ccc1c2N

>  <Category>
Not met

$$$$
>  <Molecular string>
Cc1ccc2nc3c(c(N)c2c1)CCN3Cc1ccccc1

>  <Category>
Met

$$$$
>  <Molecular string>
CC(C)(C)NCC(=O)Nc1c2c(nc3ccccc13)N(Cc1ccccc1)CC2

>  <Category>
Met

$$$$

From: ChEMBL document CHEMBL1149323
